Molecular target: T1, wild-type water-soluble pyrroloquinoline quinone (PQQ) glucose dehydrogenase (GDH-B) (UniProt P13650 25-478)
T1 construct: water-soluble PQQ-dependent glucose dehydrogenase (GDH-B); structural gene in pTrc99A; Produced as apo-form in E. coli; PQQ and Ca2+ are added for activity assays; also called wild-type GDH-B; W.T; source: E. coli PP2418 (pTrc99A), purified as previously described (cation exchange chromatography)
T1 sequence (looked up): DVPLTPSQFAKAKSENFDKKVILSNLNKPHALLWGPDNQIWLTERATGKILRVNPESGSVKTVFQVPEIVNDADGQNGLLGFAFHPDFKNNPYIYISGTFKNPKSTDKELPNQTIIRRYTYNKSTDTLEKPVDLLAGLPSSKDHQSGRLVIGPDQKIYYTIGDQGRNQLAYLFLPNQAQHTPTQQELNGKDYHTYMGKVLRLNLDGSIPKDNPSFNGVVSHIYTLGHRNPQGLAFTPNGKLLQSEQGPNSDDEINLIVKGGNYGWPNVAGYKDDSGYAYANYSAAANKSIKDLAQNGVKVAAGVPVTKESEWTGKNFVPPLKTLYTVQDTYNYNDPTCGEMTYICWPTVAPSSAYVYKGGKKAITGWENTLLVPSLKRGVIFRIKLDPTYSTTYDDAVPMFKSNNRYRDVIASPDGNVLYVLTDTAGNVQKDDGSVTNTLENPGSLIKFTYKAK
Assay: SPR; BIAcore X; peptide immobilised on CM5 chip by amine coupling (320-2130 RU); analytes GDH-B, DEE-His or HI, five concentrations (5 nM to 90 uM) in 10 mM MOPS-NaOH pH 7.0, 10 uL/min to plateau; Kd from plateau RU against concentration (Scatchard); less than 20 RU at any concentration judged as not binding
Conditions: both partners purified
Known Kd of a selection of binders
testReadout: Kd

binder="SDLSPIQSLSAI (12-mer selected from the Ph.D.-12 phage display peptide library; Immobilised on a CM5 chip by amine coupling in the SPR; also called DEE4–9; source: synthetic peptide, bought: Sigma Aldrich Japan) [DEE4–6 synthesized 12-mer peptide]" testreadout=Kd recordedmeasurement="2500 nM"
binder="ELITNSETTQWF (12-mer selected from the Ph.D.-12 phage display peptide library; Immobilised on a CM5 chip by amine coupling in the SPR; source: synthetic peptide, bought: Sigma Aldrich Japan) [HI3-2 synthesized 12-mer peptide]" testreadout=Kd recordedmeasurement="2500 nM"
binder="NSTHHHHFATIW (12-mer selected from the Ph.D.-12 phage display peptide library; Immobilised on a CM5 chip by amine coupling in the SPR; also called HI4–6; source: synthetic peptide, bought: Sigma Aldrich Japan) [DEE4–10 synthesized 12-mer peptide]" testreadout=Kd recordedmeasurement="700 nM"
binder="LGDSSNSQVSLN (12-mer selected from the Ph.D.-12 phage display peptide library; Immobilised on a CM5 chip by amine coupling in the SPR; also called DEE3-4; source: synthetic peptide, bought: Sigma Aldrich Japan) [DEE4–5 synthesized 12-mer peptide]" testreadout=Kd recordedmeasurement="13000 nM"
